# measured-on: T1, colFD-NL
# T1 chain: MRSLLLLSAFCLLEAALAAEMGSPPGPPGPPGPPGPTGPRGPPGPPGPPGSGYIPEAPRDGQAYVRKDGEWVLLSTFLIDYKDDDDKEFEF
# assay-procedure: BRET
# run-parameters: chain shown with the change; in the ER of HEK293 cells; n = 4; parent: est. 100; read off a plot
assay-metric: percent of parent

binder Hsp47-HT, P19324 Q350A (protein) AEVKKPLEAAAPGTAEKLSSKATTLAERSTGLAFSLYQAMAKDQAVENILLSPLVVASSLGLVSLGGKATTASQAKAVLSAEKLRDEEVHTGLGELLRSLSNSTARNVTWKLGSRLYGPSSVSFADDFVRSSKQHYNCEHSKINFRDKRSALQSINEWASQTTDGKLPEVTKDVERTDGALLVNAMFFKPHWDEKFHHKMVDNRGFMVTRSYTVGVTMMHRTGLYNYYDDEKEKLQMVEMPLAHKLSSLIILMPHHVEPLERLEKLLTKEQLKAWMGKMQKKAVAISLPKGVVEVTHDLQKHLAGLGLTEAIDKNKADLSRMSGKKDLYLASVFHATAFEWDTEGNPFDADIYGREELRSPKLFYADHPFIFLVRDNQSGSLLFIGRLVRPKGDKMRDEL , percent of parent observed: 100%
